tested on: MDA-MB-231; test: Cytotoxicity against human MDA-MB-231 cells assessed as reduction in cell viability incubated for 48 hrs by MTS assay; format: functional, cell-based; details: MDA-MB-231, 48 h
Readout Name: IC50
Please state the number and follow it with the unit.

Query: Please report the recorded IC50 for "CCCCCCCCCCCCCCCCOC[C@H](CO[C@H]1O[C@H](CNC(=O)CCCc2ccc(N(CCCl)CCCl)cc2)[C@@H](O)[C@H](O)[C@H]1N)OC" .
Reply: 6 µM

Query: Also check "CCCCCCCCCCCCCCCCOC[C@H](CO[C@H]1O[C@H](CN)[C@@H](O)[C@H](O)[C@H]1NC(=O)CCCc1ccc(N(CCCl)CCCl)cc1)OC"
Reply: 6 µM

----------
system: K562; assay: Antiproliferative activity against human K562 cells assessed as reduction in cell viability incubated for 48 hrs by CCK-8 assay; format: functional, cell-based; conditions: K562, 48 h
Hi there, I'd appreciate the recorded IC50 for every entry that follows.
Please state the number and follow it with the unit.

Query: Missing value: IC50, K562, entry "CCCCCCCCCCN1C[C@@H](O)[C@@H](O)C1" . Fill in?
Reply: 17.7 µM

Query: Also check "CCCCCCCCCCN1C[C@H](NC(C)=O)[C@@H](O)[C@H](O)C1=O"
Reply: 19.8 µM

----------
system: HL-60; assay: Cytotoxicity against human HL-60 cells assessed as inhibition of cell growth incubated for 72 hrs by MTT assay; format: functional, cell-based; conditions: HL-60, 72 h
Readout Name: pIC50
Value format note: pIC50 is -log10 of concentration (mol/L); just state the number.

Query: Please report the recorded pIC50 for "CCCCCCCCCC[C@@H](CC(=O)O)OC(=O)C[C@H](CCCCCCCCCC)O[C@@H]1O[C@@H](C)[C@H](O)[C@@H](O)[C@H]1O" .
Reply: 4.17

----------
assay: Cytotoxicity against mouse NIH/3T3 cells assessed as cell growth inhibition incubated for 3 days by MTT assay; format: toxicity, cell-based, NIH3T3
Readout Name: IC50 at 3 days (nM)
Write it as a number; the unit nM goes unstated.

Query: Please report the recorded IC50 at 3 days for "C/C=C(\C)C(=O)O[C@@H]1[C@@H](O)[C@@H]2O[C@H]3[C@H](O[C@@H](CCCCC)CCCCCCC(=O)CCC(=O)OC[C@@H](O2)[C@H]1OC(=O)/C=C/c1ccccc1)O[C@H](C)[C@H](OC(C)=O)[C@@H]3O" .
Reply: 16.8

----------
test system: HeLa; experiment: Cytotoxicity against human HeLa cells assessed as inhibition of cell proliferation incubated for 72 hrs by MTT assay; assay type: functional, cell-based
Hi there, I'd appreciate the recorded pIC50 for every entry that follows.
Value format note: pIC50 is -log10 of concentration (mol/L); just state the number.

Query: Please report the recorded pIC50 for "C/C=C/C/C(C)=C\[C@H]1C/C=C/C=C/C[C@H](C)/C=C(\C)[C@@H](OC)CCC[C@@H](O[C@@H]2O[C@H](CO)[C@@H](O)[C@H](OC)[C@H]2O)CC(=O)O1" .
Reply: 6.72

Query: Also check "C/C=C/C/C(C)=C\[C@H]1C/C=C/C=C/C[C@H](C)/C=C(\C)[C@@H](OC)C/C=C/[C@@H](O)CC(=O)O1"
Reply: 7.31

Query: Also check "C/C=C/C/C(C)=C\[C@H]1C/C=C/C=C/C[C@H](C)/C=C(\C)[C@@H](OC)CCC[C@@H](O)CC(=O)O1"
Reply: 7.34

Query: Also check "C/C=C/C/C(C)=C/[C@H]1C/C=C/C=C/C[C@H](C)/C=C(\C)[C@@H](OC)C/C=C/[C@@H](O[C@@H]2O[C@H](CO)[C@@H](O)[C@H](OC)[C@H]2O)CC(=O)O1"
Reply: 5.51
